- TARGET_OF_ASSAY: mutEGFR (D770_N771insSVD) (Homo sapiens, UniProt P00533, INS767SVD)
- Sequence (P00533 with tags, fused parts or gaps INS767SVD limits assumed): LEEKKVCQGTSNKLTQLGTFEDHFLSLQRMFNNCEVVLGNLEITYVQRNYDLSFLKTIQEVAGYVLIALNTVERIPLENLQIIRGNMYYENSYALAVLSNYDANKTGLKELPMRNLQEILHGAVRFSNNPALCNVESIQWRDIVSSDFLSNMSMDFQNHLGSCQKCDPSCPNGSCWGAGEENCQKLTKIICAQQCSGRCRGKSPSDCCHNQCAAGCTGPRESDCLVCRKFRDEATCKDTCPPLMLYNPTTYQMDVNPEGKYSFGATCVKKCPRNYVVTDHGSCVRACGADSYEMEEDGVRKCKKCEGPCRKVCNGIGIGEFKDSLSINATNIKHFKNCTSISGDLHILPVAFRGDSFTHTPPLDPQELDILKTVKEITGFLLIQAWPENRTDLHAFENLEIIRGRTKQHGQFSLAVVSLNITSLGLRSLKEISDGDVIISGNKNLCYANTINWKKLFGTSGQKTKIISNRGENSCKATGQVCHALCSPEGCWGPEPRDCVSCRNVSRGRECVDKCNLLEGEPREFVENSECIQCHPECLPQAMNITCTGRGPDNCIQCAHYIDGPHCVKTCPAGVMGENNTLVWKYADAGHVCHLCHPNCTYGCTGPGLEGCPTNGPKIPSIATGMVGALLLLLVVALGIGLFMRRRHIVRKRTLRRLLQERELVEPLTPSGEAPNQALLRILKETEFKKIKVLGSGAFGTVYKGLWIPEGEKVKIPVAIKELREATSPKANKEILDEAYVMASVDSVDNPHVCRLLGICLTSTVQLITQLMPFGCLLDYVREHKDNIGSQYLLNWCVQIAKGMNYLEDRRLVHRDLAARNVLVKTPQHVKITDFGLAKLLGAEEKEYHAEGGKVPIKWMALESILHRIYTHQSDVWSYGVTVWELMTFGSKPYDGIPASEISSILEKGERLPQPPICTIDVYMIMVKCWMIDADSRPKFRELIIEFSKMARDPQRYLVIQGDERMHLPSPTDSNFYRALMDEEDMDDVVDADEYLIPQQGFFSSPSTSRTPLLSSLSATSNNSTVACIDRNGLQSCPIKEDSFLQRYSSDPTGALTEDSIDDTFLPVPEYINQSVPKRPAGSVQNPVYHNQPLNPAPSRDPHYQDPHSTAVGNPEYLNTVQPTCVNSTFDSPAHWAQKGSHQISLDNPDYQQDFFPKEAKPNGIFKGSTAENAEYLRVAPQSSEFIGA
- ASSAY_NAME: Exon20-mutant-EGFR (D770_N771insSVD) TR-FRET kinase assay
- CONDITION: 2 mM ATP, 15 min preincubation
- From the text: Inhibitory activity of compounds of the present invention against an Epidermal Growth Factor Receptor (EGFR) with an insertion of the amino acids sequence SVD between D770 and N771 (SEQ ID No. 5) was quantified employing the TR-FRET based kinase activity assay as described in the following paragraphs. […]
MEASURED_PROPERTY: pIC50
Just so you know, pIC50 here is -log10 of the concentration in molar units; reply with that number alone.

Worked examples, 3 molecules total:
C=CC(=O)N(C)CCOc1cnccc1-c1[nH]c2cccnc2c1-c1ccc(Cl)cc1 = 7.87
C=CC(=O)N1CCC[C@H]1COc1cnccc1-c1[nH]c2cccnc2c1-c1ccc2ccsc2c1 = 9.41
C#CC(=O)N1CCC(Oc2cnccc2-c2[nH]c3cccnc3c2-c2cccc(C(F)(F)F)c2)C1 (racemic) = 6.76

Please find the next molecule below.
Query: Look up pIC50: C/C=C/C(=O)N1CCC[C@H]1COc1cnccc1-c1[nH]c2cccnc2c1-c1ccccc1
Reply: 5.43

----------
IC50 overview
- TARGET_OF_ASSAY: mutEGFR (D770_N771insSVD) (Homo sapiens, UniProt P00533, INS767SVD)
- ASSAY_NAME: Exon20-mutant-EGFR (D770_N771insSVD) TR-FRET kinase assay
- CONDITION: 2 mM ATP, 15 min preincubation
Only the number, expressed in nM, is required.

Worked examples, 2 compounds total:
C#CC(=O)N1CCC[C@H]1COc1cnccc1-c1[nH]c2cccnc2c1-c1ccccc1 = 1.02
C=CC(=O)N1CCCC[C@H]1COc1cnccc1-c1[nH]c2cccnc2c1-c1ccccc1 = 337

Query: Look up IC50: C=CC(=O)N1CCC[C@H]1COc1cnccc1-c1[nH]c2cccnc2c1-c1ccccc1
Reply: 0.367

Query: Look up IC50: C=CC(=O)N(C)CCOc1cnccc1-c1[nH]c2cccnc2c1-c1cc(C(F)(F)F)ccc1F
Reply: 75.6

----------
- TARGET_OF_ASSAY: mutEGFR (D770_N771insNPG, T790)
- Sequence (P00533 with tags, fused parts or gaps INS770NPG limits assumed): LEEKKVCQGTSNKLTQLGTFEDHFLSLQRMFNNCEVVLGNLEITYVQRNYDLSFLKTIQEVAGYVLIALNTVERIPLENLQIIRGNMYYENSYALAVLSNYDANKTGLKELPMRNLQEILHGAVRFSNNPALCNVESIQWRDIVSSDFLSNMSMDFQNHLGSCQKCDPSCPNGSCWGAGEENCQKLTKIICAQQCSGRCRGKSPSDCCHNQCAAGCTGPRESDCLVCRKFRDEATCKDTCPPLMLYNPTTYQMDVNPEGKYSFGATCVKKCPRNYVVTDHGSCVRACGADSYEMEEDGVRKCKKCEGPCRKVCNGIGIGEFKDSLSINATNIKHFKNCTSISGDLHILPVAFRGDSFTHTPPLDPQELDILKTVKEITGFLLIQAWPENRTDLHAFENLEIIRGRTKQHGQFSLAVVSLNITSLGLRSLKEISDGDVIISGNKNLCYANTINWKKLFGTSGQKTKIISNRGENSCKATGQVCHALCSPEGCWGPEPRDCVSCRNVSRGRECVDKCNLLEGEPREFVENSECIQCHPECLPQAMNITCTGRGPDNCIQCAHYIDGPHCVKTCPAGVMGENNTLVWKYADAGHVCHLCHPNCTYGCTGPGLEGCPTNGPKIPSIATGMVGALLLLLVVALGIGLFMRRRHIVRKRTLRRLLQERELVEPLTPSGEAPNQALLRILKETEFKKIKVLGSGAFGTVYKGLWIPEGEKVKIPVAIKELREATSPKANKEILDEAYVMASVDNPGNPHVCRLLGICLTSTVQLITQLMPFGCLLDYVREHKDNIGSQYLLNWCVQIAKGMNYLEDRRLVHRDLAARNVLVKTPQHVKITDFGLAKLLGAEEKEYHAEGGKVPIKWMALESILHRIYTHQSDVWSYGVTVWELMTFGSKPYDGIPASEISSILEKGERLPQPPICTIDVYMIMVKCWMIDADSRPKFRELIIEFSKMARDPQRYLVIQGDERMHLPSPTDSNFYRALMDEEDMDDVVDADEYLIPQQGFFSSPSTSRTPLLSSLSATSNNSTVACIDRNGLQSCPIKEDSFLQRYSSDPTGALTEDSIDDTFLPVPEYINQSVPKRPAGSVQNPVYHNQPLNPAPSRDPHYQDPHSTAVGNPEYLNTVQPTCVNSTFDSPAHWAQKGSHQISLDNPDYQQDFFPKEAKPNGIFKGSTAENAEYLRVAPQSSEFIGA
- ASSAY_NAME: mutEGFR (D770_N771insNPG, T790) kinase assay
- Type: biochemical, human
MEASURED_PROPERTY: pIC50
Just so you know, pIC50 here is -log10 of the concentration in molar units; reply with that number alone.

Query: Look up pIC50: C=CC(=O)N1C=C(F)C[C@H]1COc1cnccc1-c1[nH]c2cccnc2c1-c1ccccc1 [Example 113]
Reply: 9.14

Query: Look up pIC50: C=CS(=O)(=O)N(C)CCOc1cnccc1-c1[nH]c2cccnc2c1-c1cccc(Cl)c1 [Example 29]
Reply: 9.10

Query: Look up pIC50: CN(C)C/C=C/C(=O)N1CCC[C@H]1COc1cnccc1-c1[nH]c2cccnc2c1-c1ccc(F)c(OC(F)(F)F)c1 [Example 107]
Reply: 6.47

Query: Look up pIC50: C=CC(=O)N1CCC[C@H]1COc1cnccc1-c1[nH]c2cccnc2c1-c1cc(C#N)ccc1F [Example 90]
Reply: 7.20

Query: Look up pIC50: C=CC(=O)N(C)CCOc1cnccc1-c1[nH]c2cccnc2c1-c1ccc2cc[nH]c2c1 [Example 16]
Reply: 7.49
